Target Under Test: UniProt P23739
Sequence (P23739 whole entry): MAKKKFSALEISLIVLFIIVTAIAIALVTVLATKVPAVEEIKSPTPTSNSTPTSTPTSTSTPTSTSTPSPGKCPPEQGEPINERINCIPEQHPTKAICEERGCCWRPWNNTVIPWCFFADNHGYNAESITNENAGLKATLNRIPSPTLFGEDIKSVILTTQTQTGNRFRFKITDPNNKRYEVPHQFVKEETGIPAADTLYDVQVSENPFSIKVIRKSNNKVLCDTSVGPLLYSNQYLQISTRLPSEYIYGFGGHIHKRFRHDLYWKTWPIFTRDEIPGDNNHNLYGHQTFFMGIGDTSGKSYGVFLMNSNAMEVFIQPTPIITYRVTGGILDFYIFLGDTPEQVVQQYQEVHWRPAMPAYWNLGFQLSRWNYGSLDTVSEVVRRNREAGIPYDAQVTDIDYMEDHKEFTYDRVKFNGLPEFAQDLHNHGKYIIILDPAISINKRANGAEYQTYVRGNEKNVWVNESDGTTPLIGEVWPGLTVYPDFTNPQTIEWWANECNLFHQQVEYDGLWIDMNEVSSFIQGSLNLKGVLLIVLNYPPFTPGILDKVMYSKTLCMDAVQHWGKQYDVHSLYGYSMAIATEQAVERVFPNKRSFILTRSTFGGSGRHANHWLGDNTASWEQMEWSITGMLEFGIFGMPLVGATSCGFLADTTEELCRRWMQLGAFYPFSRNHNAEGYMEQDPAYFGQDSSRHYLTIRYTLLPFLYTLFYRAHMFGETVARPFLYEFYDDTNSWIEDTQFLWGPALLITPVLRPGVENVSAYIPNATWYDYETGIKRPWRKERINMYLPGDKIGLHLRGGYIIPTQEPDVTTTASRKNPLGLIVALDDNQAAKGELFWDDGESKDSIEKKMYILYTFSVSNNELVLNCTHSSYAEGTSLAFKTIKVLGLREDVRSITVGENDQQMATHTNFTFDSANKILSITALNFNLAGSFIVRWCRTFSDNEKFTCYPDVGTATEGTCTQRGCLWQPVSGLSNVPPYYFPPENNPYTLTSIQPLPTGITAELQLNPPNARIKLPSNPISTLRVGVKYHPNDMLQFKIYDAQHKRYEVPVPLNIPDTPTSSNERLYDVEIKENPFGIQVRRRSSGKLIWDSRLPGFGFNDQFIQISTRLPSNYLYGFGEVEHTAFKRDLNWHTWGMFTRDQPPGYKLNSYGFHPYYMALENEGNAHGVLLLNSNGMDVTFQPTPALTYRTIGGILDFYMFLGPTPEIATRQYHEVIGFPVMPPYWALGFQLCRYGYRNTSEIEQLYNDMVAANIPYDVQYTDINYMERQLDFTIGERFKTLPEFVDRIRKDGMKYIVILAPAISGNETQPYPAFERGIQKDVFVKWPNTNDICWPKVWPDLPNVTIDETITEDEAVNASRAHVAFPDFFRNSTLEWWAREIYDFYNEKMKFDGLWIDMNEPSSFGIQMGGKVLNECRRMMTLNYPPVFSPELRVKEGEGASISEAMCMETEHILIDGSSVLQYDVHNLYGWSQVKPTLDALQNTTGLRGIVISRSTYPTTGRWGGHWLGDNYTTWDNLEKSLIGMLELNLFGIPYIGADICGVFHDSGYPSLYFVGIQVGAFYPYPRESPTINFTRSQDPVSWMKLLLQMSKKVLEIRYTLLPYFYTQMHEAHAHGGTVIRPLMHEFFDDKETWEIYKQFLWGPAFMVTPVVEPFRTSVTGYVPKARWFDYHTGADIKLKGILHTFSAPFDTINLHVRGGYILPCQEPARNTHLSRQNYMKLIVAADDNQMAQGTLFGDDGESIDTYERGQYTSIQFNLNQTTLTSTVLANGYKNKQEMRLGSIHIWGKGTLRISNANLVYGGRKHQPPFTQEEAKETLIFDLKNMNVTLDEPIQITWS
pIC50: −log10 of the molar value.
Label Satisfied when pIC50 >= 7; otherwise Not satisfied.

Past entries and their recorded results:
Cc1cc(NCc2cccc(CN3C[C@H](O)[C@@H](O)[C@H](O)[C@H]3CO)n2)cc(-c2ncccn2)c1 ... Not satisfied
Cc1cc(Br)cc(NCc2ccc(CN3C[C@H](O)[C@@H](O)[C@H](O)[C@H]3CO)cc2)c1 ... Satisfied

I'd appreciate it if you could say whether [N-]=[N+]=Nc1ccc(NCC[C@H]2CC[C@H](CCN3C[C@H](O)[C@@H](O)[C@H](O)[C@H]3CO)CC2)c([N+](=O)[O-])c1 has pIC50 at least equal to 7. Not satisfied

Determine whether measured pIC50 meets or exceeds 7 for COc1cc(C#N)cc(NCCc2ccc(CCN3C[C@H](O)[C@@H](O)[C@H](O)[C@H]3CO)cc2)c1 Not satisfied

Quick check: does CS(=O)(=O)c1cc(NCc2ccc(CN3C[C@H](O)[C@@H](O)[C@H](O)[C@H]3CO)cc2)cc(-c2ncccn2)c1 have pIC50 greater than or equal to 7? Satisfied
